Molecular target: UniProtKB P42345
Sequence (P42345 1360-2549 limits assumed): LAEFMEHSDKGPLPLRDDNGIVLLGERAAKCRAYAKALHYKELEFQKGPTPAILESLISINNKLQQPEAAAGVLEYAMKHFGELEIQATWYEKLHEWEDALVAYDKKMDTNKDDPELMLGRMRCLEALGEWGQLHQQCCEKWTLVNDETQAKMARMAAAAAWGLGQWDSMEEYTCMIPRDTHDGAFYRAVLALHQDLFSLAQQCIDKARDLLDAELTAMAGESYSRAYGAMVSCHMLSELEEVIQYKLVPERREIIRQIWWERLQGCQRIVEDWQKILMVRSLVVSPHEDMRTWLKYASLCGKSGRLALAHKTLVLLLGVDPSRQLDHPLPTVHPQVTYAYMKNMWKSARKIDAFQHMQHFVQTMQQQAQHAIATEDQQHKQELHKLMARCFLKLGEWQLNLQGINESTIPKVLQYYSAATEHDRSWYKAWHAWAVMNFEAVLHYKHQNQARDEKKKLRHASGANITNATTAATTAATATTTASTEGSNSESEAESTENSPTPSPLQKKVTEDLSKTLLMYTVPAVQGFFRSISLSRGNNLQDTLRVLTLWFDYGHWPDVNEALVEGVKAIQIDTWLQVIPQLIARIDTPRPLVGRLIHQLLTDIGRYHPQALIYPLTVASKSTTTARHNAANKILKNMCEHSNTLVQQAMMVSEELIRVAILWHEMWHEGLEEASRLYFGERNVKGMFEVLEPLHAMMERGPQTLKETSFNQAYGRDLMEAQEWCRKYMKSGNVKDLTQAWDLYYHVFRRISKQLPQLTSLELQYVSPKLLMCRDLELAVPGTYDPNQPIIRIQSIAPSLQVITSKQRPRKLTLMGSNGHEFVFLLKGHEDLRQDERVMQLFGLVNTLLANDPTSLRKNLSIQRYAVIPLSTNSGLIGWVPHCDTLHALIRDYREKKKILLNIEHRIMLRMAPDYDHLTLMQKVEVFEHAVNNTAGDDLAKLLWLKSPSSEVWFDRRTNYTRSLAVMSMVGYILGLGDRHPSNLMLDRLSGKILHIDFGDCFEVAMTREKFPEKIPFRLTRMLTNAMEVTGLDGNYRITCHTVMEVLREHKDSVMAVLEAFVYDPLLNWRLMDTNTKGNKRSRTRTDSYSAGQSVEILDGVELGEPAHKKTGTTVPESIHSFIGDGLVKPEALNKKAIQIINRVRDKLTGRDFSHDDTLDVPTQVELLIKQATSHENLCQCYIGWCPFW
Assay: mTOR kinase assay (DELFIA format, purified enzyme)
Assay type: biochemical
Details: read-out: IC50 mTOR
pIC50: −log10 of the molar value.
Binary classification by pIC50, with 8 as an inclusive lower bound for yes; all other cases are no.

1. CN(C)CCCNC(=O)c1ccc(NC(=O)Nc2ccc(-c3nc(-c4ccccc4)nc(N4CCOCC4)n3)cc2)cc1
yes
2. COCC(COC)Oc1nc(-c2ccc(NC(=O)Nc3ccncc3)cc2)nc(N2CC3CCC(C2)O3)n1
yes
3. CNC(=O)Nc1ccc(-c2nc(-c3ccc(NC(=O)Nc4ccc(C(N)=O)cc4)cc3)nc(N3CCOCC3)n2)cc1
yes
4. CCCCc1nc(-c2ccc(NC(=O)Nc3ccc(C(=O)N4CCN(C)CC4)cc3)cc2)nc(N2CCOCC2)n1
no

====

Biological target: PI3K-α (Homo sapiens, UniProt P42336)
Sequence (P42336 whole entry, species assumed): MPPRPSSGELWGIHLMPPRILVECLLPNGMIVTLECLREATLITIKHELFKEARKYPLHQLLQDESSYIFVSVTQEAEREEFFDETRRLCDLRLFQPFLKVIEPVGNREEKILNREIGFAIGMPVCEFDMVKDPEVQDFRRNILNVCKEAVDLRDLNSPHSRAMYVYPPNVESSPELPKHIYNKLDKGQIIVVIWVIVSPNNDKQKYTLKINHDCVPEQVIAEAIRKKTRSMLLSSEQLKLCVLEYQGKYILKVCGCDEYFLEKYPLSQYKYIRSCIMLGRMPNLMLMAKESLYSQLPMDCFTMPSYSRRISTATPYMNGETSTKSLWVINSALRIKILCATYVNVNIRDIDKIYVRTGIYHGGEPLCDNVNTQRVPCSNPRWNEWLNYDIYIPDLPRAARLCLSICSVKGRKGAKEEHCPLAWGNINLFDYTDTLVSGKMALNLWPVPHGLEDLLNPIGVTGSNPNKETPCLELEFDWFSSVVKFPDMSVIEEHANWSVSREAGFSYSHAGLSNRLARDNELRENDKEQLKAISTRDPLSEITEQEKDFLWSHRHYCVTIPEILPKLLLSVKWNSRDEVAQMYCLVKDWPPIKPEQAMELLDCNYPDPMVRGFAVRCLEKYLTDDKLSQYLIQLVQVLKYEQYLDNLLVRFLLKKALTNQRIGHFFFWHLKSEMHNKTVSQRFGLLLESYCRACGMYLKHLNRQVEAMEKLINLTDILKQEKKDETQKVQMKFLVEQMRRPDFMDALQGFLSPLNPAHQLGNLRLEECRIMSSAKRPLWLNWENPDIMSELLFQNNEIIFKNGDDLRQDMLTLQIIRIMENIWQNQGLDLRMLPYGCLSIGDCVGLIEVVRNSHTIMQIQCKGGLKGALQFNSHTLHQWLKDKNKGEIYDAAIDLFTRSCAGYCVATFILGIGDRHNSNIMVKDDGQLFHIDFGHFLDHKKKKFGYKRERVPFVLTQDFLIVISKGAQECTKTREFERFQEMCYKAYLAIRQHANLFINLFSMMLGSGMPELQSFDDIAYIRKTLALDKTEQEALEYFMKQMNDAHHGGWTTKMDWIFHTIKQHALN
Sequence (P27986 whole entry partner, species assumed): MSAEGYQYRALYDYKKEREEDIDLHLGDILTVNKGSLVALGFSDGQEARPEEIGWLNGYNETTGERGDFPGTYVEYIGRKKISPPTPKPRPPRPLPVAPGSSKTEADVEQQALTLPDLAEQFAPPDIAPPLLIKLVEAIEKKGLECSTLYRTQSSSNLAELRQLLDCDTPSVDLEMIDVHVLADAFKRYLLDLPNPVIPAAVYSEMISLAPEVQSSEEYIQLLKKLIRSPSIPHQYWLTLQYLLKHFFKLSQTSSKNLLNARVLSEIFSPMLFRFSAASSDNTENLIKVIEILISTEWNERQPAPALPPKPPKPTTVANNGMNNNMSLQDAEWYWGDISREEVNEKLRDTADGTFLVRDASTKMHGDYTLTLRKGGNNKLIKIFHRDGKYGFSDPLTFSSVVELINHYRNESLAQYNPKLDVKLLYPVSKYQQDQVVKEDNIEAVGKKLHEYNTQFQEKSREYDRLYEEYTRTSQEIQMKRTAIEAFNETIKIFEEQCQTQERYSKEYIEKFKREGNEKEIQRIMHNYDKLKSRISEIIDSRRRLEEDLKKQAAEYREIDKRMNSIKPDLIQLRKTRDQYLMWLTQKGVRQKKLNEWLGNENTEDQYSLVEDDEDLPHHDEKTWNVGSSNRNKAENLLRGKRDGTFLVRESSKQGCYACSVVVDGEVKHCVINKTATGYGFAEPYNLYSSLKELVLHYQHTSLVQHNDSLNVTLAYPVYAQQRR
Assay: PI3K-alpha fluorescence polarization assay
Conditions: read-out: IC50 PI3Kα
Reported property: IC50

1) CNC(=O)Nc1ccc(-c2nc(OC(COC)COC)nc(N3CC4CCC(C3)O4)n2)cc1 [Example 177]
5840 nM
2) O=C(Nc1ccc(-c2nc(N3CCOCC3)nc(N3C4CCC3COC4)n2)cc1)Nc1cccnc1 [Example 36]
17 nM
3) CCNc1nc(-c2ccc(NC(=O)Nc3cccnc3)cc2)nc(N2CC3CCC(C2)O3)n1 [Example 191]
435 nM
4) O=C(Nc1ccc(C(=O)O)cc1)Nc1ccc(-c2nc(N3CCOCC3)nc(N3CCOCC3)n2)cc1 [Example 67]
6 nM

====

Biological target: UniProt P42336
Assay: PI3K-alpha fluorescence polarization assay
Conditions: read-out: IC50 PI3Kα; listed as 478
Reported property: IC50

1. CN(C)C1CCN(C(=O)c2ccc(NC(=O)Nc3ccc(-c4nc(C5CCOCC5)nc(N5CCOCC5)n4)cc3)cc2)CC1
1.1 nM

====

Molecular target: PI3K-α (Homo sapiens, UniProt P42336)
Assay: PI3K-alpha fluorescence polarization assay
Details: read-out: IC50 PI3Kα
Reported property: IC50 (nM)

1) CN(C)CCN(C)C(=O)c1ccc(NC(=O)Nc2ccc(-c3nc(N4CCOCC4)nc(N4CCN(C(=O)N(C)C)CC4)n3)cc2)cc1
2
2) O=C(Nc1ccncc1)Nc1ccc(-c2nc(CCNc3ccncc3)nc(N3CCOCC3)n2)cc1
46
3) CN(C)CCCNC(=O)c1ccc(NC(=O)Nc2ccc(-c3nc(N4CCCCC4)nc(N4CCOCC4)n3)cc2)cc1
3.5
4) O=C(Nc1ccc(C(=O)O)cc1)Nc1ccc(-c2nc(N3CCOCC3)nc(N3C4CCC3COC4)n2)cc1
8.5
5) C[C@H]1COCCN1c1nc(-c2ccc(NC(=O)Nc3ccc(C(=O)N4CCC(N(C)C)CC4)cc3)cc2)nc(N2CCOC[C@@H]2C)n1
4
6) CC(C)c1nc(-c2ccc(NC(=O)Nc3ccc(C(=O)NC4CCC4)cc3)cc2)nc(N2CCOCC2)n1
40
7) C=Cc1ccc(NC(=O)Nc2ccc(-c3nc(N4CCOCC4)nc(N4C5CCC4COC5)n3)cc2)cc1
25
8) CN(C)CCN(C)C(=O)c1ccc(NC(=O)Nc2ccc(-c3nc(C4=CCOCC4)nc(N4CCOCC4)n3)cc2)cc1
1
9) CC(C)N1CCN(C(=O)c2ccc(NC(=O)Nc3ccc(-c4nc(N5CCOCC5)nc(N5C6CCC5COC6)n4)cc3)cc2)CC1
3
10) CC(C)(C)OC(=O)N1CC(Oc2nc(-c3ccc(NC(=O)Nc4ccncc4)cc3)nc(N3CCOCC3)n2)C1
16.5
11) CN(C)CCNC(=O)c1ccc(NC(=O)Nc2ccc(-c3nc(-c4ccccc4)nc(N4CCOCC4)n3)cc2)cc1
4
12) CN(C)Cc1ccc(NC(=O)Nc2ccc(-c3nc(N4CCSCC4)nc(N4C5CCC4COC5)n3)cc2)cc1
584
13) CCc1nc(-c2ccc(NC(=O)Nc3cccc(C(=O)N4CCN(C)CC4)c3)cc2)nc(N2CCOCC2)n1
718
14) O=C(Nc1ccc(C(=O)N2CCC(N3CCCC3)CC2)cc1)Nc1ccc(-c2nc(N3CCOCC3)nc(N3CCOCC3)n2)cc1
0.4

Where do these numbers come from? They come from patent US20090304692A1.
